B1: Formin-binding protein 4, residues 593 to 636; numbered along this chain, Q8N3X1 (parent)
chain: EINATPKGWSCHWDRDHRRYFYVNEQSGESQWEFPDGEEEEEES

Variants of: B1
Assay: abundance fitness (aPCA) (normalised: wild type 0, dead -1); higher = more abundant; growth selection in yeast, the domain comes from the species named
Conditions: Homo sapiens
# abundance fitness listing for each entry below
Could you keep your reply to the number by itself?

T5G -0.393
Y20A -0.3
E40F -0.144
E42D 0.038
N24L -1

Input line: Give its abundance fitness value. Item: E39M
Output line: -0.109

Input line: Give its abundance fitness value. Item: P35N
Output line: -0.74
